Test system: HeLa cells
Measurement Description: MTT cytotoxicity assay, HeLa
Format: cell-based
Experimental Conditions: Homo sapiens, 72 h, read-out: IC50 cytotoxicity against HeLa cells
Measure Name: pIC50
Schema: pIC50 number; meaning minus log10 of the concentration expressed in molar units.

Inquiry: Indicate its recorded pIC50; the compound in question is "COc1ccc(-c2noc(NC(=O)c3ccc(C(F)(F)F)cc3)c2C#N)c(OC)c1"
Reply text: 4.71

Inquiry: Quick one: give measured pIC50 for "COc1ccc(-c2noc(NC(=O)c3ccc(F)cc3)c2C#N)c(OC)c1"
Reply text: 4.50

Inquiry: Tell me measured pIC50 for "COc1ccc(-c2noc(N)c2C#N)c(OC)c1" please.
Reply text: 5.10

Inquiry: Determine its reported pIC50: "COc1ccc(-c2noc(NC(=O)c3ccc(Cl)cc3)c2C#N)c(OC)c1"
Reply text: 5.44
